Would you kindly list melting point for each of these compounds?
Numbers only here, please. The scale is °C.

INPUT: Name the reported melting point value associated with the compound Cc1c(N2CCC(c3ccccc3)CC2)ccn2c(CC(F)(F)F)cnc12 [Example 64]
OUTPUT: 213.9

INPUT: // query melting point value for entry N#Cc1c(N2CCN(c3ccccc3)CC2)ccn2c(-c3ccccc3)cnc12 [Example 20]
OUTPUT: 220

INPUT: I would be grateful if you could share the reported melting point for CCCc1cnc2c(C#N)c(N3CCN(c4nc(C)cc(C)n4)CC3)ccn12 [Example 14] .
OUTPUT: 194.4

INPUT: // melting point lookup, key: N#Cc1c(-c2ccc(Oc3ccccc3)cc2)ccn2c(CC(F)(F)F)cnc12 [Example 80]
OUTPUT: 174.3

INPUT: Requested field: melting point. Item: N#Cc1c(-c2ccc(COc3cccc(F)c3)cc2)ccn2c(CC(F)(F)F)cnc12 [Example 114]
OUTPUT: 207.1

INPUT: Returns the measured melting point for the input compound. Input: C[C@]1(O)CC[C@@H](Nc2ccc(-c3ccn4c(CC(F)(F)F)cnc4c3C#N)cc2Cl)CC1 [Example 89]
OUTPUT: 161.6

INPUT: Would you mind telling me what melting point value was observed for CCc1cnc2c(C#N)c(N3CCN(c4nc(C)cc(C)n4)CC3)ccn12 [Example 19] ?
OUTPUT: 231.4

INPUT: Can you look up the measured melting point of CC(C)(O)c1ccccc1C1CCN(c2ccn3c(CC(F)(F)F)cnc3c2C#N)CC1 [Example 67] for me?
OUTPUT: 227.5

###

Decide using melting point alone. Strictly below 200 °C: Fulfilled. Equal to or above 200 °C: Not fulfilled.

INPUT: Consider CCCc1cnc2c(C#N)c(-c3ccc(Oc4ccnc(C)c4)cc3)ccn12 . Does its melting point lie strictly below 200 °C?
OUTPUT: Fulfilled

INPUT: is_below(melting point, 200 °C) for N#Cc1c(-c2ccc(O[C@H]3CC[C@@H](O)CC3)c(Cl)c2)ccn2c(CC(F)(F)F)cnc12 ?
OUTPUT: Not fulfilled

INPUT: Input CCCc1cnc2c(C#N)c(-c3ccc(Oc4cccnc4C)cc3)ccn12 ; condition: melting point strictly below 200 °C. Does it hold?
OUTPUT: Fulfilled

INPUT: Determine if FC(F)(F)Cc1cnc2c(Cl)c(N3CCC(F)(c4ccccc4)CC3)ccn12 shows melting point strictly lower than 200 °C.
OUTPUT: Not fulfilled

INPUT: In the record for FC(F)(F)Cc1cnc2c(Cl)c(CN3CCC4(CC3)OCc3ccccc34)ccn12 , is melting point less than 200 °C?
OUTPUT: Fulfilled

INPUT: Determine whether this molecule shows melting point lower than 200 °C (ties excluded): N#Cc1c(N2CCC(c3ccc(F)cc3F)CC2)ccn2c(CC(F)(F)F)cnc12
OUTPUT: Fulfilled

INPUT: Does the reported melting point of the following molecule sit strictly below 200 °C? Cc1cc(Oc2ccc(-c3ccn4c(CCC5CC5)cnc4c3C#N)cc2F)ccn1
OUTPUT: Not fulfilled

INPUT: Would you kindly verify if melting point of CCCc1cnc2c(C#N)c(N3CCN(c4ncccn4)CC3)ccn12 is strictly less than 200 °C?
OUTPUT: Fulfilled

INPUT: Below 200 °C on melting point? Entry N#Cc1c(N2CCC(c3ccccc3)CC2)ccn2c(-c3ccc(F)cc3F)cnc12
OUTPUT: Not fulfilled

INPUT: Hello, I'm reviewing records and need to know if melting point of CCCc1cnc2c(C#N)c(N3CCN(c4ccccc4)CC3)ccn12 is below 200 °C. Could you check?
OUTPUT: Fulfilled

INPUT: Determine if N#Cc1c(N2CCC(c3ccccc3)CC2)ccn2c(CCC3CC3)cnc12 shows melting point strictly lower than 200 °C.
OUTPUT: Fulfilled

INPUT: # check: melting point < 200 °C for N#Cc1c(N2CCC(c3ccccc3F)CC2)ccn2c(CC(F)(F)F)cnc12
OUTPUT: Fulfilled

INPUT: Bench note: check whether N#Cc1c(N2CCC(c3ccccc3)CC2)ccn2c(CCCC(F)(F)F)cnc12 shows melting point below 200 °C
OUTPUT: Fulfilled

INPUT: Given O[C@H]1CC[C@H](Nc2ccc(-c3ccn4c(CC(F)(F)F)cnc4c3Cl)cc2Cl)CC1 , is recorded melting point strictly lower than 200 °C?
OUTPUT: Fulfilled

INPUT: is_below(melting point, 200 °C) for N#Cc1c(N2CCc3c(oc4ccccc34)C2)ccn2c(CC(F)(F)F)cnc12 ?
OUTPUT: Not fulfilled

###

Target: human mGluR2 receptor (Homo sapiens, UniProt Q14416)
Construct: expressed in transfected cells; host or cells: CHO cells
Sequence (Q14416 19-872): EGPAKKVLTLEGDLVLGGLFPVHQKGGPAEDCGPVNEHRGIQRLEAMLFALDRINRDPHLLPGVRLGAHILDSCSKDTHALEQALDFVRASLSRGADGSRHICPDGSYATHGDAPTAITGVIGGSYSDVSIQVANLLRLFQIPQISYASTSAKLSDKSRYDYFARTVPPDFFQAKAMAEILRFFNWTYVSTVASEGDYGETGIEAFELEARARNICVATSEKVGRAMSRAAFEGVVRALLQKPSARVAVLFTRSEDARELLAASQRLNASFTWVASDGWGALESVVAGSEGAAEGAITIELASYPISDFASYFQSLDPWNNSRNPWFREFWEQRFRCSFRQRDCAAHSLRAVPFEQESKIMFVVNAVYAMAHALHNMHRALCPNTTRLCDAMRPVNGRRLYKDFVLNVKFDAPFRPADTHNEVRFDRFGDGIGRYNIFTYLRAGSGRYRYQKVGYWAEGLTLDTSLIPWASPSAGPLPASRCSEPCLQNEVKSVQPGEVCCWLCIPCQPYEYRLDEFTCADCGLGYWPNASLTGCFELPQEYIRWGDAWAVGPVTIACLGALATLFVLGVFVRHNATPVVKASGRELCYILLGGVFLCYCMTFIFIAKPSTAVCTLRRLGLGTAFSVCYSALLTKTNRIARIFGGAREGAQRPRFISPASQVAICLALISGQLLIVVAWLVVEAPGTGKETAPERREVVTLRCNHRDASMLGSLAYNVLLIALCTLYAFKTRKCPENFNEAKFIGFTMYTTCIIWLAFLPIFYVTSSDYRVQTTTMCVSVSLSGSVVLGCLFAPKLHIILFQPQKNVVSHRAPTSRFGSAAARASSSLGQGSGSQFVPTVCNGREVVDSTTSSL
Assay: [35S]GTPγS binding assay (PAM assay) using membranes from cells transfected with the human mGluR2 receptor
Format: biochemical
Settings: membranes of CHO cells with human mGluR2; glutamate at predetermined EC25 concentration; averages of duplicate values of 11-concentration response curves; read-out: GTPγS - hR2 PAM pEC50 (converted)
Measured property: log10(EC50) (log10 of the value in nM)
Recall that a logarithmic scale is used here: each number is log10 of EC50 in nM.

INPUT: Give its log10(EC50) value. Item: C[C@]1(O)CC[C@H](Oc2ccc(-c3ccn4c(CC(F)(F)F)cnc4c3C#N)cc2Cl)CC1 [Example 97]
OUTPUT: 2.78

INPUT: I would be grateful if you could share the reported log10(EC50) for N#Cc1c(-c2ccc(N3CCCC3)c(Cl)c2)ccn2c(CC(F)(F)F)cnc12 [Example 108] .
OUTPUT: 2.66

INPUT: // lookup log10(EC50) for N#Cc1c(CN2CCC(c3ccccc3)CC2)ccn2c(CC(F)(F)F)cnc12 [Example 27]
OUTPUT: 2.47

INPUT: # lookup: log10(EC50) of C[C@]1(O)CC[C@H](Nc2ccc(-c3ccn4c(CC(F)(F)F)cnc4c3Cl)cc2Cl)CC1 [Example 100]
OUTPUT: 2.10

INPUT: What does the record list as log10(EC50) for N#Cc1c(CN2CCC(c3ccccc3F)CC2)ccn2c(CC(F)(F)F)cnc12 [Example 44] ?
OUTPUT: 2.51

INPUT: Entry under review: N#Cc1c(-c2ccc(O[C@H]3CC[C@@H](O)CC3)c(Cl)c2)ccn2c(CC(F)(F)F)cnc12 [Example 103] . Reported log10(EC50)?
OUTPUT: 2.97

INPUT: Suppose we examine the molecule N#Cc1c(-c2ccc(Oc3ccccc3)c(F)c2)ccn2c(CC(F)(F)F)cnc12 [Example 76] ; what log10(EC50) value has been reported?
OUTPUT: 2.43

INPUT: Bench note: what log10(EC50) did Cc1cc(Oc2ccc(-c3ccn4c(CC(F)(F)F)cnc4c3C#N)cc2F)ccn1 [Example 17] show?
OUTPUT: 3.05

INPUT: Would you mind telling me what log10(EC50) value was observed for N#Cc1c(N2CCC(F)(c3ccccc3)CC2)ccn2c(CC(F)(F)F)cnc12 [Example 68] ?
OUTPUT: 1.97

INPUT: Given the entry COc1cccc(F)c1C1CCN(c2ccn3c(CC(F)(F)F)cnc3c2C#N)CC1 [Example 69] , report its measured log10(EC50).
OUTPUT: 0.99

INPUT: For the molecule shown here, N#Cc1c(N2CCC(O)(c3ccccc3)CC2)ccn2c(CC(F)(F)F)cnc12 [Example 30] , give the reported log10(EC50).
OUTPUT: 2.62

INPUT: Quick one: log10(EC50) for N#Cc1c(CN2CCC(c3ccccc3)CC2)ccn2c(-c3ccccc3)cnc12 [Example 1] ?
OUTPUT: 2.71

INPUT: Param item = N#Cc1c(N2CCC(c3ccc(F)cc3F)CC2)ccn2c(CC(F)(F)F)cnc12 [Example 33] ; retrieve measured log10(EC50).
OUTPUT: 1.79

INPUT: Given the molecule N#Cc1c(N2CCC(c3cccc(C(F)(F)F)c3)CC2)ccn2c(CC(F)(F)F)cnc12 [Example 32] , what is its reported log10(EC50)?
OUTPUT: 1.91

INPUT: Which log10(EC50) value is on record for CCCc1cnc2c(C#N)c(-c3ccc(Oc4cccnc4C)cc3)ccn12 [Example 9] ?
OUTPUT: 2.50

INPUT: Form field: reported log10(EC50) of FC(F)(F)Cc1cnc2c(Cl)c(CN3CCC(c4ccccc4)CC3)ccn12 [Example 42]
OUTPUT: 2.75

INPUT: Look up log10(EC50) for this molecule: N#Cc1c(-c2ccc(OC3CCOCC3)c(Cl)c2)ccn2c(CC(F)(F)F)cnc12 [Example 90]
OUTPUT: 2.83

###

Record form. Attribute: melting point. Fill in for each entry.
Quick note: give the figure in °C, leave out the unit.

INPUT: What does the data say about its melting point? Entry: N#Cc1c(N2CCC(F)(c3ccccc3)CC2)ccn2c(CC(F)(F)F)cnc12 [Example 68]
OUTPUT: 214

INPUT: Which measured melting point value corresponds to CC(C)(O)C1CCN(c2ccc(-c3ccn4c(CC(F)(F)F)cnc4c3C#N)cc2)CC1 [Example 112] ?
OUTPUT: 174

INPUT: Can you share its melting point? I mean this compound: N#Cc1c(-c2ccc(NC3CCOCC3)c(Cl)c2)ccn2c(CC(F)(F)F)cnc12 [Example 92]
OUTPUT: 230.7

INPUT: Record request: melting point value, item CC(O)(c1ccccc1)c1ccc(-c2ccn3c(CC(F)(F)F)cnc3c2C#N)cc1 (stereo not drawn) [Example 81]
OUTPUT: 102.7

INPUT: Which melting point value is on record for CC(C)(O)c1ccc(C2CCN(c3ccn4c(CC(F)(F)F)cnc4c3Cl)CC2)cc1 [Example 63] ?
OUTPUT: 189.3

INPUT: May I ask what melting point has been recorded for CCc1cnc2c(C#N)c(N3CCC(c4ccccc4)CC3)ccn12 [Example 12] ?
OUTPUT: 150
